Tested on: Candida albicans
Method description: Antimicrobial activity against Candida albicans PTCC 5027 after 24 hr by Alamar blue assay
Assay type: functional
Test parameters: PTCC 5027, 24 h
Property measured: MIC (µg/mL)

The following compounds have reported results that may help.
Compound	MIC (µg/mL)
CCOC(=O)C1=C(C)NC(=O)NC1c1cnc(SC)n1Cc1ccccc1 (stereo not drawn)	64
CSc1ncc(C2NC(=O)NC(C)=C2C(=O)Nc2ccccc2Cl)n1Nc1ccccc1 (stereo not drawn)	128
CSc1ncc(C2NC(=O)NC(C)=C2C(=O)Nc2cccnc2)n1Nc1ccccc1 (stereo not drawn)	32
CSc1ncc(C2NC(=O)NC(C)=C2C(=O)Nc2ccccn2)n1Cc1ccccc1 (stereo not drawn)	64
CSc1ncc(C2NC(=O)NC(C)=C2C(=O)Nc2ccccc2Cl)n1Cc1ccccc1 (stereo not drawn)	256

I = COC(=O)C1=C(C)NC(=O)NC1c1cnc(SC)n1Cc1ccccc1 (stereo not drawn)
II = CSc1ncc(C2NC(=O)NC(C)=C2C(=O)Nc2cccc(Cl)c2)n1Nc1ccccc1 (stereo not drawn)
// query Between I and II , which one shows the smaller MIC number? Answer by quoting the chosen item's label.
// result II

A = CSc1ncc(C2NC(=O)NC(C)=C2C(=O)Nc2cccnc2)n1Cc1ccccc1 (stereo not drawn)
B = CSc1ncc(C2NC(=O)NC(C)=C2C(=O)Nc2ccccn2)n1Nc1ccccc1 (stereo not drawn)
// query Between A and B , whose recorded MIC is greater? Answer by quoting the chosen item's label.
// result A
(A: 128 µg/mL, B: 32 µg/mL)

P = COC(=O)C1=C(C)NC(=O)NC1c1cnc(SC)n1Nc1ccccc1 (stereo not drawn)
Q = CSc1ncc(C2NC(=O)NC(C)=C2C(=O)Nc2cccc(Cl)c2)n1Cc1ccccc1 (stereo not drawn)
R = CCOC(=O)C1=C(C)NC(=O)NC1c1cnc(SC)n1Nc1ccccc1 (stereo not drawn)
S = CSc1ncc(C2NC(=O)NC(C)=C2C(=O)Nc2ccc(Cl)cc2)n1Nc1ccccc1 (stereo not drawn)
// query Your job: order these 4 records by MIC, ascending. Answer by listing the labels in the order asked for.
// result S, R, P, Q

src = ChEMBL document CHEMBL3045602
